target: recombinant human IDE42-1019 (Homo sapiens, UniProt P14735); construct: recombinant human IDE42-1019 (R&D Systems); purchased R&D Systems; assay: Protease assay with fluorogenic peptide substrate Mca-[…](Dnp)-OH; type: biochemical; conditions: fluorogenic peptide Mca-RPPGFSAFK(Dnp)-OH; plateau at high inhibitor concentration; read-out: Imax (%) Proteolysis (inhibition maximum)
Measure name: Emax (%)
Report the value in % with no unit label.

Prompt: Which Emax reading was recorded for the compound `Cc1ccccc1S(=O)(=O)N1CCCCN2[C@H](CO)[C@@H](c3ccc(-c4cccc(F)c4F)cc3)[C@@H]2C1` ?
Completion: 90

Prompt: // query: `Cc1ccccc1-c1ccc([C@H]2[C@@H](CO)N3C(=O)CN(C(=O)c4cccnc4)C[C@H]23)cc1`
Completion: 60

Prompt: // query: `Cc1ccccc1-c1ccc([C@H]2[C@H](CO)N3C(=O)CN(C(=O)Cc4ccccn4)C[C@@H]23)cc1`
Completion: 50

Prompt: // query: `COc1ccc(NC(=O)N2CCCCN3[C@H](CO)[C@H](c4ccc(-c5ccccc5C)cc4)[C@@H]3C2)cc1`
Completion: 30

Prompt: // query: Cc1ccccc1-c1ccc(C2C3CN(Cc4ccncc4)CC2N3)cc1 (stereo not drawn)
Completion: 70

Prompt: // query: `Cc1ccc(-c2ccc([C@@H]3[C@@H](CO)N4CCCCN(S(=O)(=O)c5ccccc5C)C[C@@H]34)cc2)cc1C`
Completion: 72

Prompt: // query: `Cc1ccccc1-c1ccc([C@H]2[C@H]3CN(C(=O)NC4CCCC4)CC(=O)N3[C@H]2CO)cc1`
Completion: 50

Prompt: // query: Cc1ccccc1-c1ccc(C2C3CN(C(=O)c4cnccn4)CC2N3)cc1 (stereo not drawn)
Completion: 70

Prompt: // query: `Cc1cccc(-c2ccc([C@@H]3[C@H](CO)N4CCCCN(S(=O)(=O)c5cn(C)cn5)C[C@@H]34)cc2)c1`
Completion: 40

Prompt: // query: Cc1ccccc1S(=O)(=O)N1CCCCN2C(C1)[C@H](c1ccc(-c3cccc(F)c3)cc1)[C@H]2CO (stereo partly drawn)
Completion: 65

Prompt: // query: `Cc1ccccc1-c1ccc([C@@H]2[C@H]3CN(C(=O)Cc4ccccn4)CC(=O)N3[C@H]2CO)cc1`
Completion: 50

Prompt: // query: `Cc1cc(C)cc(-c2ccc([C@@H]3[C@@H](CO)N4CCCCN(S(=O)(=O)c5ccccc5C)C[C@@H]34)cc2)c1`
Completion: 72

Prompt: // query: COc1ccccc1-c1ccc([C@H]2[C@@H](CO)N(C(=O)NC(C)C)[C@H]2C#N)cc1 [D2]
Completion: 100

Prompt: // query: `Cc1ccccc1-c1ccc([C@H]2[C@@H](CO)N3C(=O)CN(C(=O)Nc4ccc(F)cc4)C[C@H]23)cc1`
Completion: 30

---

What IC50 was measured for each of the following?
target: recombinant human IDE42-1019 (Homo sapiens); construct: recombinant human IDE42-1019 (R&D Systems); purchased R&D Systems; experiment: Protease assay with fluorogenic peptide substrate Mca-[…](Dnp)-OH; type: biochemical; conditions: fluorogenic peptide Mca-RPPGFSAFK(Dnp)-OH; apparent IC50 for compounds with submaximal inhibition; read-out: IC50 (μM) Proteolysis
Counter-ions that a name gives are not always drawn.
Report the value in µM with no unit label.

Prompt: Which IC50 reading was recorded for the molecule Cc1cccc(-c2ccc([C@@H]3[C@@H](CF)N4CCCCN(S(=O)(=O)c5ccccc5C(F)(F)F)C[C@@H]34)cc2)c1C [JP-18 TFA salt] ?
Completion: 0.01

Prompt: // query: Cc1cc2c(cc1S(=O)(=O)N1CCC(c3ccc(-c4cccc(C)c4C)cc3)CC1)OCC(=O)N2 [A13]
Completion: 10

Prompt: // query: Cc1cccc(-c2ccc(C3CCN(Cc4ccc(Oc5ccccc5)cc4)CC3)cc2)c1C [A31]
Completion: 12

Prompt: // query: COc1cccc(-c2ccc([C@@H]3[C@@H](CO)N4CCCCN(S(=O)(=O)c5ccccc5C)C[C@@H]34)cc2)c1 [K3]
Completion: 0.4

Prompt: // query: Cc1ccccc1-c1ccc([C@H]2[C@@H](CO)N3CCCCN(S(=O)(=O)c4cn(C)cn4)C[C@H]23)cc1 [compound 736]
Completion: 2.5

Prompt: // query: Cc1cccc(-c2ccc([C@H]3[C@@H](CO)N4CCCCN(C(=O)c5cccnc5)C[C@H]34)cc2)c1 [compound 091]
Completion: 7

Prompt: // query: Cc1ccccc1-c1ccc([C@H]2[C@@H](CO)N3CCCCN(C(=O)Nc4ccccc4)C[C@@H]23)cc1 [compound 1570]
Completion: 7

Prompt: // query: Cc1ccccc1S(=O)(=O)N1CCCCN2[C@H](CO)[C@@H](c3ccc(-c4cnc(F)c(C)c4)cc3)[C@@H]2C1 [K26]
Completion: 4

Prompt: // query: Cc1ccccc1-c1ccc([C@H]2[C@H](CO)N3C(=O)CN(C(=O)Nc4cccc(F)c4)C[C@@H]23)cc1 [compound 534]
Completion: 7

Prompt: // query: CNC[C@@H]1[C@@H](c2ccc(-c3cccc(C)c3C)cc2)[C@@H]2CN(S(=O)(=O)c3ccccc3C(F)(F)F)CCCCN12 [JP-17-NHMe]
Completion: 0.007

---

What IC50 was measured for each of the following?
Target: recombinant human IDE42-1019 (Homo sapiens, UniProt P14735)
Construct: recombinant human IDE42-1019 (R&D Systems); purchased R&D Systems
Sequence (P14735 42-1019): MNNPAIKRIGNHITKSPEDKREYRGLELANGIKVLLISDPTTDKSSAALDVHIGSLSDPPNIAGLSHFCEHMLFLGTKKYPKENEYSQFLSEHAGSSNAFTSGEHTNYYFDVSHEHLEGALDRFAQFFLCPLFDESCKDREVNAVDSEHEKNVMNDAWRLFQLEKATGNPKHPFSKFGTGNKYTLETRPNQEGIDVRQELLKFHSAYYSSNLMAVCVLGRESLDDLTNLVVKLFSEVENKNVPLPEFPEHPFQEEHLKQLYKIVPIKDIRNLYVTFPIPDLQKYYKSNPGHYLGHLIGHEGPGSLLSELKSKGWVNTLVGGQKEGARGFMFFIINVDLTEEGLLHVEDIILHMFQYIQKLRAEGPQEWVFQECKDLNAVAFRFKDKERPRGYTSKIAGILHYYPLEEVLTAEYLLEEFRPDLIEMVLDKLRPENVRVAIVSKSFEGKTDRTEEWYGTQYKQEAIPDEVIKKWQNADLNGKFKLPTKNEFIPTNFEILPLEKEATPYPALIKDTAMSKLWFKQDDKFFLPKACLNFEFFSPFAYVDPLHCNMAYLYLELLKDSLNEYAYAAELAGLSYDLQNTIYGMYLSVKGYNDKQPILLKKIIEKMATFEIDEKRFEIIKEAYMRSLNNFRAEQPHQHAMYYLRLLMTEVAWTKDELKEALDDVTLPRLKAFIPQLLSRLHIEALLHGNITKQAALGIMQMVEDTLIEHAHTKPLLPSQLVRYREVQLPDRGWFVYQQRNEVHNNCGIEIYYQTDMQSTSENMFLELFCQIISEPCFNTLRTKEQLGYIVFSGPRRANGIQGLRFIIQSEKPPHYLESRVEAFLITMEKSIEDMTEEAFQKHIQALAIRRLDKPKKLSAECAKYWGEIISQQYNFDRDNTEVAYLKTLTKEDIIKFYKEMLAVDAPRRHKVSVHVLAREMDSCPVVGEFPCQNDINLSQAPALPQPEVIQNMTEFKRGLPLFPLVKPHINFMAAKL
Test: Protease assay with fluorogenic peptide substrate Mca-[…](Dnp)-OH
Format: biochemical
Conditions: fluorogenic peptide Mca-RPPGFSAFK(Dnp)-OH; apparent IC50 for compounds with submaximal inhibition; read-out: IC50 (μM) Proteolysis

Prompt: Which IC50 reading was recorded for the compound `Cc1cccc(-c2ccc([C@@H]3[C@@H](CO)N4CCCCN(C(=O)c5ccc6c(c5)OCO6)C[C@@H]34)cc2)c1` ?
Completion: > 200 µM

Prompt: // query: `Cc1cccc(-c2ccc(C3CCN(C(=O)Oc4cccc5ccccc45)CC3)cc2)c1C`
Completion: > 50 µM

Prompt: // query: `Cc1ccccc1S(=O)(=O)N1CC=C(c2ccc(-c3cccc(C)c3C)cc2)CC1`
Completion: > 100 µM

Prompt: // query: `Cc1cccc(-c2ccc([C@H]3[C@@H](CO)N4CCCCN(Cc5cccnc5)C[C@H]34)cc2)c1`
Completion: > 60 µM

Prompt: // query: `Cc1cccc(-c2ccc(C3CCN(Cc4ccc5ccccc5n4)CC3)cc2)c1C`
Completion: 12 µM

Prompt: // query: Cc1cccc(-c2ccc([C@@H]3[C@@H](CO)N4CCCCN(S(=O)(=O)c5ccccc5C)C[C@@H]34)cc2)c1 [B2]
Completion: 0.4 µM

Prompt: // query: Cc1cccc(-c2ccc([C@@H]3[C@@H](CO)N4CCCCN(C(=O)c5cccnc5)C[C@@H]34)cc2)c1 [compound 443]
Completion: > 100 µM

Prompt: // query: `CCCCC(=O)N1CC(=O)N2[C@@H](CO)[C@@H](c3ccc(C#Cc4cccc(OC)c4)cc3)[C@@H]2C1`
Completion: > 100 µM
